# Test Name: gradient 5% acetonitrile 3 min, to 50% in 2 min, to 85% in 15 min, held 3 min, 100 µL/min
# Condition Set: column: Zorbax Extend-C18 2.1 x 50 mm; eluents: water / acetonitrile, 0.1% formic acid
In this section we review reported RP-LC retention time values for a set of compounds.
Expressed in s, but write only the number.

Consider the following illustrative entries.
• O=C(CCl)NC1(C(=O)O)CCCC1 = 661
• c1ccc(-c2noc(C3CNC3)n2)cc1 = 557
• COc1ccc(OC)c(NC(=O)N2CCc3cn(C)c4cccc(c34)C2)c1 = 943
• COc1ccc(OCc2noc(CNC(=O)NCc3cccs3)n2)cc1 = 737
• CCN(CC)C(=O)c1ccc2c(c1)N(CC(=O)NCCN1CCCCCC1)C(=O)CO2 = 603

Suppose we examine the compound Cc1ncc2c(n1)C[C@@H]1CC[C@H]2N1C(=O)Nc1ccc2c(c1)OCCO2 ; what RP-LC retention time value has been reported?
630

Moving on to the next compound: Cc1c(N2CCC(C(=O)NCC3CCCO3)CC2)c(=O)n(C)c(=O)n1-c1ccccc1 (stereo not given)
691

Moving on to the next compound: COc1ccc(-c2ncccc2CNS(=O)(=O)c2ccc(Br)cc2)cc1
733

Moving on to the next compound: Cc1cccc2nnc(N3CCN(C(=O)c4cccc(Br)c4)CC3)n12
683

Moving on to the next compound: Cc1ccn2c(NC(=O)C(C)(C)Oc3ccc(Cl)cc3)c(-c3ccc(F)cc3)nc2c1
819

###

# Test Name: gradient 5% acetonitrile 3 min, to 50% in 2 min, to 85% in 15 min, held 3 min, 100 µL/min
# Condition Set: column: Zorbax Extend-C18 2.1 x 50 mm; eluents: water / acetonitrile, 0.1% formic acid
Hi, to clarify the labels: 1 covers RP-LC retention time from 700 s upward, 0 covers anything below 700 s.

Example entries begin here.
* CC(C)N1C(=O)c2cccnc2Sc2cc(NC(=O)Cc3cccc(F)c3)ccc21 | 1
* CCn1c(C(=O)NCc2ccc(N(C)C)cc2)cc2c(-c3cccs3)nn(-c3ccccc3)c21 | 1
* Cc1noc(-c2ccc(=O)n(CC(=O)Nc3ccccc3)c2)n1 | 0

Evaluate COCCCNC(=O)C1CCN(c2cnc3nc(C)c(C)nc3c2)CC1 : RP-LC retention time at minimum 700 s?
0

###

# Test Name: gradient 5% acetonitrile 3 min, to 50% in 2 min, to 85% in 15 min, held 3 min, 100 µL/min
# Condition Set: column: Zorbax Extend-C18 2.1 x 50 mm; eluents: water / acetonitrile, 0.1% formic acid
Hi, to clarify the labels: t covers RP-LC retention time from 700 s upward, f covers anything below 700 s.

- CN1C(=O)CCC2(CNC(=O)Nc3ccccc3F)CCCC=C12 (centres undefined): t
- CCC(C)C(=O)NC1CCN(C2=NS(=O)(=O)C(c3ccccc3)=C2C)CC1 (centres undefined): t
- Cc1cc(C)cc(S(=O)(=O)N2CCCN(c3ccc(=O)n(-c4ccccc4)n3)CC2)c1: t

Evaluate O=C(CN1C(=O)CC(c2ccccc2)S(=O)(=O)c2ccccc21)NCCc1ccccc1 (centres undefined) : RP-LC retention time at minimum 700 s?
t

Moving on to the next molecule: O=C(NC1CCN(C(=O)c2cn(-c3cccc(F)c3)nn2)CC1)c1ccc2ccccc2n1
t

Moving on to the next molecule: O=C(Nc1cnc(N2CCCCC2)nc1)c1ccc(Cl)s1
t

Moving on to the next molecule: O=C(NCc1ccc(OC(F)(F)F)cc1)C1CCCN(c2nnc3ccccn23)C1 (centres undefined)
t

Moving on to the next molecule: C=CCc1cc(OC)ccc1OCC(O)CN1CCN(C(=O)OCC)CC1 (centres undefined)
f

Moving on to the next molecule: COc1cc(NC(=O)C2=Cc3cc(Br)ccc3OC2)cc(OC)c1OC
t

Moving on to the next molecule: CC(=O)N1CCCc2cc(S(N)(=O)=O)ccc21
f

Moving on to the next molecule: CCc1nnc(NC(=O)CSc2nc3c(c(=O)n2CCOC)SC(C)C3)s1 (centres undefined)
f
